# study-target: T1, human MSLN-R3-3 polypeptide (human)
# T1 construct: also called human MSLN-R3-3 protein; hMSLN-R3-3
# experiment-description: ELISA on coated antigen, antibody 0.0001 nM
readout-name: OD450 (OD450)
State just the number; it will be interpreted in OD450.

Would you please look over these solved cases?
{"binder": "S009-F2-56.12 (antibody, human IgG1, kappa, V domains shown, Human-murine chimeric antibody: murine VH/VL on human IgG1 heavy and kappa light constant regions) VH: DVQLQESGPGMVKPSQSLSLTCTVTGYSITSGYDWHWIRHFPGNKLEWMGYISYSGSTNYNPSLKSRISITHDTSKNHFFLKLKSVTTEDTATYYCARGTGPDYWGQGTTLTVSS VL: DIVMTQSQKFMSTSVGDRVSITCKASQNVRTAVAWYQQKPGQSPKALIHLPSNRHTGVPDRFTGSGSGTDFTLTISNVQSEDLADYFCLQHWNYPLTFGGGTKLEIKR", "OD450 (OD450)": 0.06}
{"binder": "S009-F2.39.3 (antibody, human IgG1, kappa, V domains shown, Human-murine chimeric antibody: murine VH/VL on human IgG1 heavy and kappa light constant regions) VH: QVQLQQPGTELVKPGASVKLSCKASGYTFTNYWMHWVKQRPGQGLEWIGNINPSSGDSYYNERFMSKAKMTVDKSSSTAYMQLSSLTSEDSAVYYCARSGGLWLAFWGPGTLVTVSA VL: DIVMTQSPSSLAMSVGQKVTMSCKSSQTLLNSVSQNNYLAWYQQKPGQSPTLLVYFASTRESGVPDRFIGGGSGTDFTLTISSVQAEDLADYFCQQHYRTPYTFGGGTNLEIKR", "OD450 (OD450)": 0.05}
{"binder": "S009-F2.13.3 (antibody, human IgG1, kappa, V domains shown, Human-murine chimeric antibody: murine VH/VL on human IgG1 heavy and kappa light constant regions) VH: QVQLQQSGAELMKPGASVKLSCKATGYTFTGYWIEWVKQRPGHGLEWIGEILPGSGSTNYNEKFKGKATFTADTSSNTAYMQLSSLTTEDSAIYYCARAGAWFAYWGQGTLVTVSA VL: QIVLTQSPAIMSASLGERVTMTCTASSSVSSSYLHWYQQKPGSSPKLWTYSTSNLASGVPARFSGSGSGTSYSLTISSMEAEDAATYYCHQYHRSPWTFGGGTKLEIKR", "OD450 (OD450)": 0.05}

Consider now this further binder.
Exam item: Entry S009-F2.58.8 (antibody, human IgG1, kappa, V domains shown, Human-murine chimeric antibody: murine VH/VL on human IgG1 heavy and kappa light constant regions) VH: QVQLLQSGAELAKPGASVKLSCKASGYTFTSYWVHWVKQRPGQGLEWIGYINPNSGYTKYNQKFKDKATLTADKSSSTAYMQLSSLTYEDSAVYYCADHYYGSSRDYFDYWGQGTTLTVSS VL: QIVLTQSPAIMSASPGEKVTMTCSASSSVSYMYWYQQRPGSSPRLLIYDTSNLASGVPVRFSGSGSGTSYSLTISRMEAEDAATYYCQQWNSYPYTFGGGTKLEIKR needs its OD450 filled in; supply it.
Marked response: 0.05
